- target-or-system: T1, recombinant purified FRα (ECL assay calibrator) (human, UniProt P15328 25-234)
- T1 construct: Calibrator of the ECL sandwich assays; also called FRα calibrator; FRα standard
- T1 sequence (P15328 25-234 limits assumed): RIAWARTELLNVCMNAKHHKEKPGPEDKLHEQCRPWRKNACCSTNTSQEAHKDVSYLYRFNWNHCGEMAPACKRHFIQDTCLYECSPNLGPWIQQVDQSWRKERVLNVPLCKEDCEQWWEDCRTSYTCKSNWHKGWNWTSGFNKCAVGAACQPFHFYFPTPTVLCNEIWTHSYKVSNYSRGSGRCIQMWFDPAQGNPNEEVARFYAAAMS
- test-details: ECL sandwich on FRα, signal to background; capture 2F11.F8; binder = detection Ab
quantity-name: Average of S/B

binder	quantity-name	measured
Monoclonal antibody 1C6.E12.G8 (antibody, mouse IgG1, V domains shown, Murine IgG1 kappa from hybridoma; also called ATCC PTA-123091) VH: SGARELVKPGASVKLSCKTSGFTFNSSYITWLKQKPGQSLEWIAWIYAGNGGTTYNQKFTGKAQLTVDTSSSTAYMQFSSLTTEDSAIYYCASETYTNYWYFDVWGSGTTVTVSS VL: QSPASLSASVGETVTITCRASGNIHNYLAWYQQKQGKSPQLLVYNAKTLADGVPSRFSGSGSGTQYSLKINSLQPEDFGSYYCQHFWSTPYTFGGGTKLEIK	Average of S/B	1
Monoclonal antibody 24H8.D3 (antibody, mouse IgG1, V domains shown, Biotin-conjugated when used as capture antibody in the ECL assay; also called ATCC PTA-123090) VH: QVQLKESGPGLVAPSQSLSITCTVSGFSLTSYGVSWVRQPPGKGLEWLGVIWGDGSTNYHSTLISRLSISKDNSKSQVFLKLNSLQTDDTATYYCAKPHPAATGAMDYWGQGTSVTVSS VL: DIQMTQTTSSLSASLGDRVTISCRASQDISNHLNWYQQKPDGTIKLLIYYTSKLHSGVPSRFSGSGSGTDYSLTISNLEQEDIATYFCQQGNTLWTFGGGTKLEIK	Average of S/B	1
Monoclonal antibody 26A9.C4 (antibody, mouse IgG1, V domains shown, Murine IgG1 kappa from hybridoma; also called ATCC PTA-123092) VH: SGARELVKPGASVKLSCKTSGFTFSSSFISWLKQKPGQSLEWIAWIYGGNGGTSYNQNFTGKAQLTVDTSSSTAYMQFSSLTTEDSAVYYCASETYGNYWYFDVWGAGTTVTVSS VL: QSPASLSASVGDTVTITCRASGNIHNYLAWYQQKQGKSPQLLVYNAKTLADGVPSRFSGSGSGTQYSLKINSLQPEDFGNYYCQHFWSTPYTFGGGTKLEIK	Average of S/B	1

The origin of these recorded values is patent US20180148504A1.
